Values compiled from patent US11261186B2.

system: hGPR120 (Homo sapiens, UniProt Q5NUL3)
measurement.protocol: Measurement of Activity of GPR120 Agonist (Cell-Based Assay), Calcium 5 dye fluorescence
condition.info: CHO-K1 cells expressing Ga16 and hGPR120
Experimental: CHO-K1 cells expressing Ga16 and hGPR120 were dispensed into each well of a 96-well plate (3×10^4 cells/100 μl/well) and then incubated in 5% CO2, 37° C. incubator for 18 hours. […] Each well was treated with 50 μl of the agonist compounds using Plexstation II, and then fluorescence was measured at Ex 485 nm and Em 525 nm. Fluorescence increased by the serially diluted GPR120 agonists is calculated as a relative percent (%) value based on the fluorescence represented by the treatment of 1% DMSO only. […]
pEC50: −log10 of the molar value.
Recorded pEC50 for the following molecules
quantity.measured: pEC50

molecule | endpoint.result
Cc1cc(OCC2CC2)nc(-c2cc(F)c(N(C)CCCC(=O)O)c(F)c2)n1 | > 6.70
CCCSc1ncccc1-c1cc(F)c(OCc2cc(O)no2)c(F)c1 | > 6.70
CC(C)Oc1ncccc1-c1cc(F)c(C(C)CCCC(=O)O)c(F)c1 (stereo not drawn) | > 6.70
COC(c1cccc(-c2cc(F)c(N3CCC(CC(=O)O)CC3)c(F)c2)n1)C1CC1 (stereo not drawn) | 4.70 to 5.70
CCOc1cncc(-c2cc(F)c(N3CCC(CC(=O)O)CC3)c(F)c2)n1 | > 6.70
CC(C)Sc1cccc(-c2cc(F)c(N3CC(CC(=O)O)C3)c(F)c2)n1 | > 6.70
C[C@H](C/C=C/C(=O)O)c1c(F)cc(-c2cccnc2SC2CCC2)cc1F | > 6.70
O=C(O)CCC1CCc2cc(-c3cccnc3OCC3CC3)ccc2S1 (stereo not drawn) | > 6.70
O=C(O)CC1CCN(c2c(F)cc(-c3cncc(C4CCC4)n3)cc2F)CC1 | > 6.70
O=C(O)CC1CN(c2c(F)cc(-c3cccc(OCC4CC4)n3)cc2F)C1 | > 6.70
O=C(O)COc1ccc2cc(-c3cccnc3OC3CCCC3)ccc2c1 | 4.70 to 5.70
O=C(O)CC1CCN(c2ccc(-c3cccnc3OC3CCCC3)cc2F)CC1 | 5.70 to 6.70
O=C(O)C1CC1COc1c(F)cc(-c2cncc(OC3CCC3)n2)cc1F (stereo not drawn) | > 6.70
O=C(O)CC1CCN(c2c(F)cc(-c3nccc(Oc4ccc(Cl)cc4)n3)cc2F)C1 (stereo not drawn) | 5.70 to 6.70
CN(CCCC(=O)O)c1c(F)cc(-c2cccnc2OCC2CCC2)cc1F | > 6.70
CCN(CCCC(=O)O)c1c(F)cc(-c2cccnc2SC2CCC2)cc1F | 5.70 to 6.70
O=C(O)CCCOc1ccc(-c2cccnc2OC2CCC2)cc1F | 5.70 to 6.70
CC(CCCC(=O)O)c1ccc(-c2cccc(OC3CCC3)n2)cc1 (stereo not drawn) | > 6.70

###

system: hGPR120 (Homo sapiens)
Sequence (Q5NUL3 1-361): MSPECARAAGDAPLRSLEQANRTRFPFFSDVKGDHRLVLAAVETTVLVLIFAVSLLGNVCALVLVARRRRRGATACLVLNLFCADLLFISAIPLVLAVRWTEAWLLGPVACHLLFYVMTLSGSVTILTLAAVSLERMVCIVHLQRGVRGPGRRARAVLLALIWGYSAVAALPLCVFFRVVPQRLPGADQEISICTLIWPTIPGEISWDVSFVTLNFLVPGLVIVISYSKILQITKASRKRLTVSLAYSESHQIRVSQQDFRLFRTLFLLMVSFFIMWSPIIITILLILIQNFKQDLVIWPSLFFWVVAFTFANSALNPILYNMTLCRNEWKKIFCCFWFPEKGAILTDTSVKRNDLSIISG
measurement.protocol: Measurement of Activity of GPR120 Agonist (Cell-Based Assay), Calcium 5 dye fluorescence
condition.info: CHO-K1 cells expressing Ga16 and hGPR120
pEC50: −log10 of the molar value.

molecule | pEC50
CN(CCCC(=O)O)c1c(F)cc(-c2cncc(OCC3CC3)n2)cc1F | > 6.70
O=C(O)CC1CCN(c2c(F)cc(-c3cccc(OCC4CC4)c3)cc2F)CC1 | 5.70 to 6.70
O=C(O)CCCC1(c2c(F)cc(-c3cccc(OCC4CC4)n3)cc2F)CC1 | > 6.70
CN(CCCC(=O)O)c1c(F)cc(-n2ncc3ccc(OC4CCC4)cc32)cc1F | > 6.70
COc1cccc2c1ccn2-c1cc(F)c(OCCCC(=O)O)c(F)c1 | 5.70 to 6.70
O=C(O)CCCOc1c(F)cc(-c2cccc(OC3CCC3)c2)cc1F | > 6.70
O=C(O)CCC1CCc2cc(-c3cccc(OC4CCC4)n3)ccc2O1 (stereo not drawn) | > 6.70
CN1c2ccc(-c3cccc(OC4CCCC4)n3)cc2CCC1CCC(=O)O (stereo not drawn) | 5.70 to 6.70
CC(C)(CCCC(=O)O)c1ccc(-c2cccnc2SC2CCC2)cc1 | > 6.70
CC(C)Sc1ncccc1-c1cc(F)c(N2CCC(CCC(=O)O)CC2)c(F)c1 | > 6.70
CC(C)Sc1cccc(-c2ccc(C(F)(F)CCCC(=O)O)cc2)n1 | > 6.70
CCCSc1ncccc1-c1ccc(CCCc2noc(=S)[nH]2)cc1 | 4.70 to 5.70
Cc1ncc(-c2cc(F)c(N3CCC(CC(=O)O)CC3)c(F)c2)nc1OC1CCC1 | 5.70 to 6.70
O=C(O)CCCOc1c(F)cc(-c2cncc(OC3CCC3)n2)cc1F | > 6.70
COc1ncccc1-c1cc(F)c(N(C)CCCC(=O)O)c(F)c1 | 4.70 to 5.70
O=C(O)CCCCc1ccc(-c2cccnc2SC2CCC2)cc1 | > 6.70
N#Cc1ccc2c(ccn2-c2cc(F)c(OCCCC(=O)O)c(F)c2)c1 | 4.70 to 5.70
O=C(O)C[C@@H]1CCN(c2c(F)cc(-c3cccnc3OC3CCCC3)cc2F)C1 | > 6.70
O=C(O)CCCOc1c(F)cc(-n2ccc3ccc(OCC4CC4)cc32)cc1F | > 6.70
CCCOc1cncc(-c2cc(F)c(N3CCC(CC(=O)O)C3)c(F)c2)n1 (stereo not drawn) | > 6.70
O=C(O)CC1CCN(c2c(F)cc(-c3nccc(Oc4ccc(F)cc4)n3)cc2F)CC1 | > 6.70
CC(CCCC(=O)O)c1c(F)cc(-c2cccc(OC3CCC3)n2)cc1F (stereo not drawn) | > 6.70
O=C(O)CCC1CCc2cc(-c3cccc4c3OC3(CCCC3)C4)ccc2S1 (stereo not drawn) | 5.70 to 6.70
COc1ccc(-c2cc(F)c(C3CC3CCC(=O)O)c(F)c2)c2c1OC(C)(C)C2 (stereo not drawn) | 5.70 to 6.70
CC(C)COc1ccnc(-c2cc(F)c(N3CCC(CC(=O)O)C3)c(F)c2)n1 (stereo not drawn) | 5.70 to 6.70
O=C(O)C1CC1COc1c(F)cc(-c2nccc(OC3CCC3)n2)cc1F (stereo not drawn) | > 6.70
O=C(O)CCCC(F)(F)c1ccc(-c2cccnc2SC2CCC2)cc1 | > 6.70
CC(C)COc1cncc(-c2cc(F)c(N3CCC(CC(=O)O)C3)c(F)c2)n1 (stereo not drawn) | 5.70 to 6.70
CN(CCCC(=O)O)c1c(F)cc(-c2nccc(OCC3CC3)n2)cc1F | > 6.70
O=C(O)C1CC1COc1c(F)cc(-c2cccc(OC3CCC3)n2)cc1Cl (stereo not drawn) | > 6.70
O=C(O)CCCOc1c(F)cc(-n2ccc3cc(OC4CCC4)ccc32)cc1F | 5.70 to 6.70
O=C(O)CC1CN(c2c(F)cc(-c3cncc(OCC4CC4)n3)cc2F)C1 | > 6.70
O=C(O)CCCCc1ccc(-c2cccnc2OCC2CC2)cc1F | > 6.70
CC(CCCCC(=O)O)c1c(F)cc(-c2cccnc2SC2CCCC2)cc1F (stereo not drawn) | > 6.70
O=C(O)CC1CCN(c2c(F)cc(-c3nccc(Oc4ccc(C(F)(F)F)cc4)n3)cc2F)CC1 | 5.70 to 6.70
CCOc1cccc(-c2cc(F)c(N3CCC(CC(=O)O)CC3)c(F)c2)n1 | 5.70 to 6.70

###

system: hGPR120 (Homo sapiens, UniProt Q5NUL3)
measurement.protocol: Measurement of Activity of GPR120 Agonist (Cell-Based Assay), Calcium 5 dye fluorescence
condition.info: CHO-K1 cells expressing Ga16 and hGPR120
pEC50: −log10 of the molar value.

compound | pEC50
O=C(O)CCCOc1c(F)cc(-c2occc2COCC2CC2)cc1F | > 6.70
CN(CCCC(=O)O)c1c(F)cc(-c2cccnc2OC2CCCC2)cc1F | > 6.70
O=C(O)CCCSc1ccc(-c2cccc3c2OC(F)(F)O3)cc1 | > 6.70
O=C(O)CCCOc1c(F)cc(-c2ccc(Cl)c(OC3CCC3)n2)cc1F | 5.70 to 6.70
O=C(O)CCCOc1c(F)cc(-c2cncc(OC3CCC3)n2)cc1Cl | > 6.70
O=C(O)CCCOc1c(F)cc(-c2ccc3ccn(CC4CC4)c3c2)cc1F | > 6.70
CN(CCCC(=O)O)c1c(F)cc(-c2cccc(NCC3CC3)c2)cc1F | > 6.70
O=C(O)CC1CCN(c2c(F)cc(-c3cccc(OC4CCCC4)n3)cc2F)CC1 | 5.70 to 6.70
CCCSc1ncccc1-c1cc(F)c(C2CC2CCC(=O)O)c(F)c1 (stereo not drawn) | > 6.70
